- Target or test system: T1, TNFR1 (Homo sapiens, UniProt P19438)
- T1 chain: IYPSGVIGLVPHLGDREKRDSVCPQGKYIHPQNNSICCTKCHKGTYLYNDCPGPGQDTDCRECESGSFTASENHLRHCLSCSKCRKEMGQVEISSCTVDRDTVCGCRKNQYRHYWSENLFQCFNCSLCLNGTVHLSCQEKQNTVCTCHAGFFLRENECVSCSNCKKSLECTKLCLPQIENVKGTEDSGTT
- Test details: yeast display SC50
Reported apparent Kd (screen) values are given for each entry in this list.
Record the result as a number with its unit.

Below, each entry is followed by its recorded apparent Kd (screen) result.
>  <Binder>
E77C (designed binder) MTLQELLREEALRRAEAEAFRYALELLAEKFPEQKEYLLDLAEEIESQIRSLSGVDVEDVRKFLDKEWAWVKELLACHPAELAEVEAARAARLAELRAEVEAKVAA

>  <Value kind>
apparent Kd (screen)

>  <Val>
1.16 nM

$$$$
>  <Binder>
T2N (designed binder) MNLQELLREEALRRAEAEAFRYALELLAEKFPEQKEYLLDLAEEIESQIRSLSGVDVEDVRKFLDKEWAWVKELLAEHPAELAEVEAARAARLAELRAEVEAKVAA

>  <Value kind>
apparent Kd (screen)

>  <Val>
0.956 nM

$$$$
>  <Binder>
A80T (designed binder) MTLQELLREEALRRAEAEAFRYALELLAEKFPEQKEYLLDLAEEIESQIRSLSGVDVEDVRKFLDKEWAWVKELLAEHPTELAEVEAARAARLAELRAEVEAKVAA

>  <Value kind>
apparent Kd (screen)

>  <Val>
0.718 nM

$$$$

For the next question, use this binder.
### Prompt Hello, please tell me recorded apparent Kd (screen) for this one: L39Y (designed binder) MTLQELLREEALRRAEAEAFRYALELLAEKFPEQKEYLYDLAEEIESQIRSLSGVDVEDVRKFLDKEWAWVKELLAEHPAELAEVEAARAARLAELRAEVEAKVAA
### Response 1.69 nM
